Biological target: Mas-related G-protein coupled receptor member X1 (Homo sapiens)
Test: blockade of BAM8-22-evoked MrgX1 calcium response – HEK293 cells, Fluo-4 calcium flux, primary screen (AID 588676);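 for B-score: peak minus trough fluorescence over baseline after final BAM8-22 challenge near maximal dose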
Details: Fluo-4, BAM8-22 antagonism, at 10 µM; stronger effect = lower value
Out of some 310,000 compounds screened, about 3,900 (1.3%) were called active. This excerpt belongs to a sample that is enriched for actives.
property_label: B-score

These solved cases illustrate the format of a correct answer.
compound="CCOC(=O)C(O)(c1ccc(N=Cc2ccccc2O)c(C)c1)C(F)(F)F (configuration not stated)" property_label=B-score assay_value=inactive
compound=COc1ccccc1C1=NCc2nnc(CSC)n2-c2ccc(Cl)cc21 property_label=B-score assay_value=inactive
compound="COc1ccccc1N1CCN(C(CNC(=O)Oc2ccccc2)c2cccnc2)CC1 (configuration not stated)" property_label=B-score assay_value=inactive
compound=O=C(CCN1CCCCC1)NCC(=O)Nc1ccc(Br)cc1C(=O)c1ccccc1 property_label=B-score assay_value="-5.59 (active)"
compound="CCOC(=O)C1=C(C)OC(N)=C(C(=O)OC)C12C(=O)Nc1ccc(Br)cc12 (configuration not stated)" property_label=B-score assay_value=inactive
compound=CCCCCn1c(=O)c(C(=O)NCc2ccccc2)c(O)c2ccccc21 property_label=B-score assay_value="-6.52 (active)"
compound="Cc1cccc(NC(=O)N2CC3CC(C2)c2cccc(=O)n2C3)c1 (configuration not stated)" property_label=B-score assay_value=inactive
compound=COc1ccc(S(=O)(=O)NCc2ccc(C(=O)N3CCC4(CC3)OCCO4)cc2)cc1 property_label=B-score assay_value="-6.08 (active)"
compound="Cc1ccc(-n2c(O)c(C=NCC3CCCO3)c(=O)[nH]c2=O)c(C)c1 (configuration not stated)" property_label=B-score assay_value=inactive
compound=O=C(CN1CCCCC1)Nc1ccc(Br)cc1C(=O)c1ccccc1Cl property_label=B-score assay_value=inactive

Below are some compounds; for each one, tell me its B-score.
1. CCCCCCCCCCCCn1ccc(=N)cc1
2. COc1ccc(NC(=O)N2CCC3(CC2)OCCO3)c(OC)c1

-5.32 (active)
inactive
